target: Human HDAC4 (Homo sapiens, UniProt P56524); construct: amino acids 627-1085 with N-terminal GST tag; GST (N); host or cells: baculovirus expression system; assay: HDAC4 biochemical assay, class IIa-specific substrate; settings: read-out: HDAC Isoform IC50 (nM) 4
Sequence (P56524 627-1084 limits assumed): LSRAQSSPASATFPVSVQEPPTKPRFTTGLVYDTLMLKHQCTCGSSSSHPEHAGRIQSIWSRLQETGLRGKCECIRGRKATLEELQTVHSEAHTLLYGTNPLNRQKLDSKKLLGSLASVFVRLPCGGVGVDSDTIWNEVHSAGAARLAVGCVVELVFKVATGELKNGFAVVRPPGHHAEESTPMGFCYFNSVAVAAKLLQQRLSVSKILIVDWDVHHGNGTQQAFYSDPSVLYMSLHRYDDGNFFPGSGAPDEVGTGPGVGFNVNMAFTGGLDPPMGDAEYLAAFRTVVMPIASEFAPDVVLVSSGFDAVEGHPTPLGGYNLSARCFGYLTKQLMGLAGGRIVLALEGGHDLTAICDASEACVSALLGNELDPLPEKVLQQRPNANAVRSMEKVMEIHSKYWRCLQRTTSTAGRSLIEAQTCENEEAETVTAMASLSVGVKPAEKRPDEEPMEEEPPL
READOUT_NAME: IC50

> print(dat)
                           smiles.structure                        measurement.target  readout.name  reported.value
1  FC(F)(F)c1nc(-c2ccc(CN(c3ccccn3)c3cnccn3)s2)no1  Human HDAC4 (Homo sapiens, UniProt P56524)          IC50      ≤ 10000 nM
2  COc1cncc(N(Cc2ccc(-c3noc(C(F)(F)F)n3)s2)c2cncc(OC)n2)n1  Human HDAC4 (Homo sapiens, UniProt P56524)          IC50      ≤ 10000 nM
3  CN(C)c1nccc(N(Cc2ccc(-c3noc(C(F)(F)F)n3)s2)c2cnccn2)n1  Human HDAC4 (Homo sapiens, UniProt P56524)          IC50      ≤ 10000 nM
4  CS(=O)(=O)c1cnc(N(Cc2ccc(-c3noc(C(F)(F)F)n3)s2)c2cnccn2)cn1  Human HDAC4 (Homo sapiens, UniProt P56524)          IC50       ≤ 1000 nM
5  COc1cnc(N(Cc2ccc(-c3noc(C(F)(F)F)n3)s2)c2cnccn2)cn1  Human HDAC4 (Homo sapiens, UniProt P56524)          IC50      ≤ 10000 nM

**Q:** Respond only with IC50 recorded for `FC(F)(F)c1nc(-c2ccc(CN(c3cnccn3)c3ncccn3)s2)no1`
**A:** ≤ 10000 nM

* * *

target: Human HDAC4 (Homo sapiens, UniProt P56524); construct: amino acids 627-1085 with N-terminal GST tag; GST (N); host or cells: baculovirus expression system; test: HDAC4 biochemical assay, class IIa-specific substrate; conditions: read-out: HDAC Isoform IC50 (nM) 4
READOUT_NAME: IC50

> print(dat)
                                   compound  readout.name  reported.value
1  FC(F)(F)c1nc(-c2ccc(CN(c3cnccn3)c3ccc(CN4CCOCC4)nn3)s2)no1 [Example FN]          IC50       ≤ 1000 nM
2  COc1ccnc(N(Cc2ccc(-c3noc(C(F)(F)F)n3)s2)c2cnccn2)n1 [Example AU]          IC50      ≤ 10000 nM
3  FC(F)(F)c1nc(-c2ccc(CN(c3cnccn3)c3ccc(-n4cccn4)nn3)s2)no1 [Example DM]          IC50        ≤ 500 nM
4  FC(F)(F)c1nc(-c2ccc(CN(c3cnccn3)c3ncccc3N3CCOCC3)s2)no1 [Example AN]          IC50      ≤ 10000 nM
5  COc1cc(N(Cc2ccc(-c3noc(C(F)(F)F)n3)s2)c2cnccn2)ncn1 [Example CH]          IC50      ≤ 10000 nM

Now consider the entry below.
**Q:** Given the compound Cc1ncnc(C)c1N(Cc1ccc(-c2noc(C(F)(F)F)n2)s1)c1cnccn1 [Example DC] , write its reported IC50.
**A:** ≤ 500 nM

* * *

target: Recombinant human HDAC6 (Homo sapiens, UniProt Q9UBN7); construct: full length, MW=159 kDa; GST (N); host or cells: Sf9 insect cells (baculovirus); assay: HDAC6 biochemical assay, AMC-labeled peptide substrate; details: HDAC6; read-out: HDAC Isoform IC50 (nM) 6
Sequence (Q9UBN7 whole entry, canonical isoform): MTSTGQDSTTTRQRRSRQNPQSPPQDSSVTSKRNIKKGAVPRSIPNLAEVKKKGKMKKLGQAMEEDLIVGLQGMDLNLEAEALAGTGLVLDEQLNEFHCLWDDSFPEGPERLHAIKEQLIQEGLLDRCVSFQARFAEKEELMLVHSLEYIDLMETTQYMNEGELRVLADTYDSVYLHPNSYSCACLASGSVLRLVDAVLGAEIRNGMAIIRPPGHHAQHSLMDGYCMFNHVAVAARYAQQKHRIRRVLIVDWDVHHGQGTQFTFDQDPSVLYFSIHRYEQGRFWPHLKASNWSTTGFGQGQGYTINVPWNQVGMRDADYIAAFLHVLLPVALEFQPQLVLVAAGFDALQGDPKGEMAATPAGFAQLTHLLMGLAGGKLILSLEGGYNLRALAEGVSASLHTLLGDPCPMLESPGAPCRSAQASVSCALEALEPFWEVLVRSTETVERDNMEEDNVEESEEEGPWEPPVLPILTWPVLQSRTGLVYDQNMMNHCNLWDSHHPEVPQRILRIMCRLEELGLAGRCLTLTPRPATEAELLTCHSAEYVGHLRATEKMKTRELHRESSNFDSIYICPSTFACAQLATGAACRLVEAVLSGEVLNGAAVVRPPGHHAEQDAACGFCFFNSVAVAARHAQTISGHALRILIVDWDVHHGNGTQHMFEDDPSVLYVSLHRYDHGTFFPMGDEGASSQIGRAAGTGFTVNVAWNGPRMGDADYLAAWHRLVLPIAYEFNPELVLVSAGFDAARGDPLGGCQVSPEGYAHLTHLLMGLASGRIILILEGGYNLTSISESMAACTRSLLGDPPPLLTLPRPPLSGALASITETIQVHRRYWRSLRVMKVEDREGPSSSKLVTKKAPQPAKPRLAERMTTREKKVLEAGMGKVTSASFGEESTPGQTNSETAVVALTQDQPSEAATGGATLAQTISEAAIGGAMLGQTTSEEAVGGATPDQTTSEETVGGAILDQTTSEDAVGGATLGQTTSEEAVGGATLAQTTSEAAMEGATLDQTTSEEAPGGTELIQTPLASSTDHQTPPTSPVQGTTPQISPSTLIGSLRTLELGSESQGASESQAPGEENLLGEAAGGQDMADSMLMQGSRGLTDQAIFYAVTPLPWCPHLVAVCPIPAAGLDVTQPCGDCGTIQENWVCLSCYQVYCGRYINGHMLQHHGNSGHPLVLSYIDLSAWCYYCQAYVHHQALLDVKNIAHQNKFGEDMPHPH
# IC50 listing for each entry below

Below, each entry is followed by its recorded IC50 result.
> print(dat)
                           smiles.structure  readout.name  reported.value
1  Cn1ccc2c(N(Cc3ccc(-c4noc(C(F)(F)F)n4)s3)c3cnccn3)ncnc21          IC50      ≤ 10000 nM
2  COc1cc(N(Cc2ccc(-c3noc(C(F)(F)F)n3)s2)c2cnccn2)ncn1          IC50      ≤ 10000 nM
3  COc1cnc(N(Cc2ccc(-c3noc(C(F)(F)F)n3)s2)c2cnccn2)cn1          IC50       ≤ 1000 nM
4  COCc1nccnc1N(Cc1ccc(-c2noc(C(F)(F)F)n2)s1)c1cnccn1          IC50       ≤ 1000 nM
5  FC(F)(F)c1nc(-c2ccc(CN(c3cnccn3)c3cccc(N4CCOCC4)n3)s2)no1          IC50      ≤ 10000 nM

**Q:** Could you please provide reported IC50 for `FC(F)(F)c1ccc(N(Cc2ccc(-c3noc(C(F)(F)F)n3)s2)c2cnccn2)nn1` ? Thanks!
**A:** ≤ 500 nM

**Q:** Give the reported IC50 for this compound. `Cc1ncc(N(Cc2ccc(-c3noc(C(F)(F)F)n3)s2)c2cnccn2)cn1`
**A:** ≤ 1000 nM

**Q:** Note down IC50 recorded for `O=C(c1nccnc1N(Cc1ccc(-c2noc(C(F)(F)F)n2)s1)c1cnccn1)N1CC(O)(C(F)(F)F)C1`
**A:** ≤ 1000 nM

**Q:** Give reported IC50 value for `Cc1ncnc(C)c1N(Cc1ccc(-c2noc(C(F)(F)F)n2)s1)c1cnccn1`
**A:** ≤ 10000 nM

**Q:** Consider the compound `Cc1ncncc1N(Cc1ccc(-c2noc(C(F)(F)F)n2)s1)c1cnccn1` . State its measured IC50.
**A:** ≤ 10000 nM

* * *

target: Human HDAC9 (Homo sapiens, UniProt Q9UKV0); construct: amino acids 604-1066 with C-terminal His tag; His (C); host or cells: baculovirus expression system; test: HDAC9 biochemical assay, class IIa-specific substrate; settings: read-out: HDAC Isoform IC50 (nM) 9
Sequence (Q9UKV0 604-1066 isoform Q9UKV0-5): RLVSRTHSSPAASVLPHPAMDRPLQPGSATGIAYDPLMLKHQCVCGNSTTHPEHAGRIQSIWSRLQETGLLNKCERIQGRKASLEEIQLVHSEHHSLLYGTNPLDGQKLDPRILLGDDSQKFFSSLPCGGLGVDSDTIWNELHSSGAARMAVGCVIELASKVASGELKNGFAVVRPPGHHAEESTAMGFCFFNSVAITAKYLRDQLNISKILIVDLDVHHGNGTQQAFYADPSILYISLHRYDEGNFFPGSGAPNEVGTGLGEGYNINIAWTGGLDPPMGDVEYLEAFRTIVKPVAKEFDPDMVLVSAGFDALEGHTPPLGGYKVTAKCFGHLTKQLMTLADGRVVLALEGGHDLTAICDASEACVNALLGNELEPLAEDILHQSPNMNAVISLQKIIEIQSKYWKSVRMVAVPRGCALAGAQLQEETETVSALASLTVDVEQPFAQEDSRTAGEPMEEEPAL
Reported IC50 values are given for each entry in this list.

Record excerpt, results attached:
> print(dat)
                                   molecule  reported.value
1  COc1ccc2ncnc(N(Cc3ccc(-c4noc(C(F)(F)F)n4)s3)c3cnccn3)c2c1 [Example CN]      ≤ 10000 nM
2  O=C(c1ccc(N(Cc2ccc(-c3noc(C(F)(F)F)n3)s2)c2cnccn2)nn1)N1CCCC1 [Example FI]       ≤ 1000 nM
3  NC(=O)c1ccc(N(Cc2ccc(-c3noc(C(F)(F)F)n3)s2)c2cnccn2)nn1 [Example DQ]       ≤ 1000 nM
4  Cc1nc(N2CCCC2)cc(N(Cc2ccc(-c3noc(C(F)(F)F)n3)s2)c2cnccn2)n1 [Example CQ]      ≤ 10000 nM
5  CN(C)c1cc(N(Cc2ccc(-c3noc(C(F)(F)F)n3)s2)c2cnccn2)ncn1 [Example CI]      ≤ 10000 nM

Here is the next item to consider.
**Q:** Answer with the recorded IC50 for the molecule listed here: FC(F)(F)c1nc(-c2ccc(CN(c3cnccn3)c3nccc(N4CCCC4)n3)s2)no1 [Example AV]
**A:** ≤ 10000 nM

* * *

IC50 for assorted compounds
biological target: Human HDAC9 (Homo sapiens); construct: amino acids 604-1066 with C-terminal His tag; His (C); host or cells: baculovirus expression system; assay: HDAC9 biochemical assay, class IIa-specific substrate; conditions: read-out: HDAC Isoform IC50 (nM) 9

**Q:** Fill: IC50 (Human HDAC9 (Homo sapiens)) for this compound `FC(F)(F)c1nc(-c2ccc(CN(c3cnccn3)c3cccc(N4CCOCC4)n3)s2)no1`
**A:** ≤ 10000 nM

**Q:** Send back Human HDAC9 (Homo sapiens) IC50 of `O=C(c1nccnc1N(Cc1ccc(-c2noc(C(F)(F)F)n2)s1)c1cnccn1)N1CC(O)(C(F)(F)F)C1` only.
**A:** ≤ 10000 nM

**Q:** System Human HDAC9 (Homo sapiens). Read-out IC50. Item `O=C(c1cnnc(N(Cc2ccc(-c3noc(C(F)(F)F)n3)s2)c2cnccn2)c1)N1CC(C(F)F)C1` . Report value.
**A:** ≤ 10000 nM

**Q:** System Human HDAC9 (Homo sapiens). Read-out IC50. Item `O=C(c1ccc(N(Cc2ccc(-c3noc(C(F)(F)F)n3)s2)c2cnccn2)nn1)N1CCOCC1` . Report value.
**A:** ≤ 1000 nM

**Q:** Provide Human HDAC9 (Homo sapiens) IC50 reading for `FC(F)(F)c1nc(-c2ccc(CN(c3cnccn3)c3ncccn3)s2)no1` .
**A:** ≤ 10000 nM

**Q:** Jot down IC50 (Human HDAC9 (Homo sapiens)) of `CNC(=O)c1ccc(N(Cc2ccc(-c3noc(C(F)(F)F)n3)s2)c2cnccn2)nn1` .
**A:** ≤ 10000 nM

**Q:** Tell me IC50 of `O=C(c1ccc(N(Cc2ccc(-c3noc(C(F)(F)F)n3)s2)c2cnccn2)nn1)N1CCC12COC2` when tested on Human HDAC9 (Homo sapiens).
**A:** ≤ 1000 nM

**Q:** Find the measured IC50 of `FC(F)(F)c1ccnc(N(Cc2ccc(-c3noc(C(F)(F)F)n3)s2)c2cnccn2)c1` with Human HDAC9 (Homo sapiens) as test system.
**A:** > 10000 nM

**Q:** # return IC50 of `O=C(O)c1cnnc(N(Cc2sc(-c3noc(C(F)(F)F)n3)cc2F)c2cnccn2)c1` (system: Human HDAC9 (Homo sapiens))
**A:** ≤ 10000 nM

**Q:** Provide IC50, recorded with Human HDAC9 (Homo sapiens), of `FC(F)(F)c1nc(-c2ccc(CN(c3cnccn3)c3cc(N4CCOCC4)cnn3)s2)no1`
**A:** ≤ 10000 nM

**Q:** Fill in IC50 for `COc1ncc(N(Cc2ccc(-c3noc(C(F)(F)F)n3)s2)c2cnccn2)nc1OC` tested with Human HDAC9 (Homo sapiens).
**A:** ≤ 10000 nM

**Q:** For Human HDAC9 (Homo sapiens), give the measured IC50 of the entry `Cc1nccc(N(Cc2ccc(-c3noc(C(F)(F)F)n3)s2)c2cnccn2)n1`
**A:** ≤ 1000 nM
